Recorded values, source patent US10174016B2.

Biological target: human P2X3 receptor (Homo sapiens (Human))
Experiment: Intracellular calcium measurement (FLIPR, Fluo-4) of antagonist activity at human P2X3 receptors
Type: cell-based
Details: human P2X3, FLIPR calcium assay, agonist α,β-Me-ATP; read-out: hP2X3 IC50
pIC50: −log10 of the molar value.
Listed here: items and their measured pIC50.

{"columns": ["COMPOUND", "pIC50"],
 "data": [
  ["Cc1ccc(CNC(=O)c2cc(OCC3CCOCC3)cc(-c3ncc(C4CCC4)s3)c2)nn1", 7.62],
  ["Cc1cnc(-c2cc(OC3CCOCC3)cc(C(=O)NC(C)c3ncc(F)cc3Cl)c2)s1 (stereo not drawn)", 7.92],
  ["Cc1cnc(-c2cc(OC[C@H]3CN(C)C(=O)CO3)cc(C(=O)N[C@H](C)c3cnc(C(F)(F)F)nc3)c2)s1", 7.16],
  ["CC[C@@H](NC(=O)c1cc(O[C@@H]2CCOC2)cc(-c2ncc(C)s2)c1)c1cnc(C(F)(F)F)nc1", 6.88],
  ["CCc1cnc(-c2cc(OC[C@H]3CCOC3)cc(C(=O)N[C@H](C)c3cnc(C(F)(F)F)nc3)c2)s1", 8.70],
  ["Cc1cnc(-c2cc(OC3CCN(C)CC3)cc(C(=O)N[C@H](C)c3cnc(C(F)(F)F)nc3)c2)s1", 8.10],
  ["Cc1cnc(-c2cc(OCC3(C)COC3)cc(C(=O)N[C@H](C)c3cnc(C(F)(F)F)nc3)c2)s1", 8.00],
  ["Cc1cnc(-c2cc(OCC3CCOC3)cc(C(=O)NC(C)c3ncc(F)cc3Cl)c2)s1 (stereo in doubt)", 7.82],
  ["Cc1ccc(CNC(=O)c2cc(OC[C@H]3CCOC3)cc(-c3ncc(C4CCC4)s3)c2)nn1", 6.97],
  ["Cc1cnc(-c2cc(Oc3nnc(C)s3)cc(C(=O)N[C@H](C)c3ccc(C(F)(F)F)nc3)c2)s1", 7.54],
  ["Cc1ccc(CNC(=O)c2cc(O[C@@H]3CCOC3)cc(-c3ncc(C)s3)c2)nn1", 7.46],
  ["Cc1cnc(-c2cc(O[C@H]3CCNC3)cc(C(=O)N[C@H](C)c3cnc(C(F)(F)F)nc3)c2)s1", 7.44],
  ["Cc1cnc(-c2cc(OCC3(F)CNC3)cc(C(=O)N[C@H](C)c3cnc(C(F)(F)F)nc3)c2)s1", 7.24],
  ["Cc1ccc([C@@H](C)NC(=O)c2cc(OC[C@H]3CCCO3)cc(-c3ncc(C)s3)c2)nn1", 7.85],
  ["Cc1ccc(CNC(=O)c2cc(OCC3CC3)cc(-c3ncc(C)s3)c2)nn1", 7.72]
]}

====

Molecular target: human P2X3 receptor (Homo sapiens (Human))
Test: Intracellular calcium measurement (FLIPR, Fluo-4) of antagonist activity at human P2X3 receptors
Format: cell-based
Conditions: human P2X3, FLIPR calcium assay, agonist α,β-Me-ATP; read-out: hP2X3 IC50

{"columns": ["COMPOUND", "UNITS TEXT", "IC50"],
 "data": [
  ["C#CCOc1cc(C(=O)NCc2cnc(C)cn2)cc(-c2ncc(C)s2)c1 [Example 35]", "nM", 460],
  ["C[C@@H](NC(=O)c1cc(OC[C@@H]2CN(C)CCO2)cc(-c2ncc(Cl)s2)c1)c1cnc(C(F)(F)F)nc1 [Example 376]", "nM", 32],
  ["Cc1cnc(CNC(=O)c2cc(OC[C@@H]3CCCO3)cc(-c3ncc(C)s3)c2)cn1 [Example 56]", "nM", 148]
]}

====

Target: human P2X3 receptor (Homo sapiens (Human), UniProt P56373)
Sequence (P56373 whole entry): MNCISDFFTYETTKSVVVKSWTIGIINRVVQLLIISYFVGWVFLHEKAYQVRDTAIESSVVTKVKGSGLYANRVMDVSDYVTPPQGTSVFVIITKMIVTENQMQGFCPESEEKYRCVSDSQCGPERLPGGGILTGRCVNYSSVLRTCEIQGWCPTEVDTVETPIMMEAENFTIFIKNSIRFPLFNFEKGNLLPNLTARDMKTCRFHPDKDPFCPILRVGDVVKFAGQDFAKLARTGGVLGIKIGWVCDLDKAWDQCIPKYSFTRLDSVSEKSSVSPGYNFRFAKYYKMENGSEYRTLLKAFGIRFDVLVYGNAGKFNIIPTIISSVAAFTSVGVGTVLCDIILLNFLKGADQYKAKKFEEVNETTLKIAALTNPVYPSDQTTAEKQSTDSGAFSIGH
Assay: Intracellular calcium measurement (FLIPR, Fluo-4) of antagonist activity at human P2X3 receptors
Assay type: cell-based
Details: human P2X3, FLIPR calcium assay, agonist α,β-Me-ATP; read-out: hP2X3 IC50
Form field: IC50 (one value per entry).

{"columns": ["MOLECULE", "IC50, nM"],
 "data": [
  ["Cc1ccc(CNC(=O)c2cc(OC[C@H]3CCCO3)cc(-c3ncc(C)s3)c2)nn1 [Example 62]", 85],
  ["Cc1cnc(-c2cc(OCC3CNCCO3)cc(C(=O)N[C@H](C)c3cnc(C(F)(F)F)nc3)c2)s1 (stereo partly drawn) [Example 352]", 18],
  ["COC(=O)N1CC2COCC(C1)C2Oc1cc(C(=O)N[C@H](C)c2cnc(C(F)(F)F)nc2)cc(-c2ncc(C)s2)c1 (stereo partly drawn) [Example 345]", 7]
]}

====

Target: human P2X3 receptor (Homo sapiens (Human))
Experiment: Intracellular calcium measurement (FLIPR, Fluo-4) of antagonist activity at human P2X3 receptors
Type: cell-based
Conditions: human P2X3, FLIPR calcium assay, agonist α,β-Me-ATP; read-out: hP2X3 IC50
The reader will find reported IC50 values listed item by item below.
MEASUREMENT NAME: IC50

{"columns": ["MOLECULE", "MEASUREMENT NAME", "RESULT"],
 "data": [
  ["Cc1cnc(-c2cc(O[C@@H]3CCOC3)cc(C(=O)N[C@H](C)c3ccc(C(F)(F)F)nn3)c2)s1 [Example 19]", "IC50", "0.019 µM"],
  ["Cc1cnc(-c2cc(OC[C@@H]3CCCN3C)cc(C(=O)N[C@H](C)c3cnc(C(F)(F)F)nc3)c2)s1 [Example 378]", "IC50", "0.06 µM"],
  ["Cc1cnc(-c2cc(OCC3(F)CN(C)C3)cc(C(=O)N[C@H](C)c3cnc(C(F)(F)F)nc3)c2)s1 [Example 371]", "IC50", "0.024 µM"],
  ["Cc1cnc(-c2cc(OC3COC3)cc(C(=O)NC(C)c3nnc(C(F)(F)F)s3)c2)s1 (single isomer, unassigned) [Example 194]", "IC50", "0.046 µM"]
]}

====

Molecular target: human P2X3 receptor (Homo sapiens (Human))
Test: Intracellular calcium measurement (FLIPR, Fluo-4) of antagonist activity at human P2X3 receptors
Type: cell-based
Settings: human P2X3, FLIPR calcium assay, agonist α,β-Me-ATP; read-out: hP2X3 IC50
pIC50: −log10 of the molar value.
This listing pairs molecules with measured pIC50.

{"columns": ["MOLECULE", "SYSTEM", "pIC50"],
 "data": [
  ["C#CCOc1cc(C(=O)NCc2ncc(Cl)cc2F)cc(-c2ncc(C)s2)c1 [Example 32]", "human P2X3 receptor (Homo sapiens (Human))", 7.62],
  ["Cc1cc(Oc2cc(C(=O)NCc3ccc(C)nn3)cc(-c3ncc(C)s3)c2)ccn1 [Example 101]", "human P2X3 receptor (Homo sapiens (Human))", 7.82],
  ["Cc1cnc(-c2cc(O[C@H]3CCOC3)cc(C(=O)NC(C)c3ncc(F)cc3Cl)c2)s1 (some centres unmarked) [Example 132]", "human P2X3 receptor (Homo sapiens (Human))", 7.12],
  ["Cc1ncc([C@@H](C)NC(=O)c2cc(OCC3CCOCC3)cc(-c3ncc(C4CCC4)s3)c2)cn1 [Example 124]", "human P2X3 receptor (Homo sapiens (Human))", 7.57],
  ["Cc1cnc(-c2cc(OC3CCOCC3)cc(C(=O)N[C@H](C)c3nnc(C)s3)c2)s1 [Example 92]", "human P2X3 receptor (Homo sapiens (Human))", 7.62],
  ["CC#CCOc1cc(C(=O)N[C@H](C)c2nnc(C)s2)cc(-c2ncc(C)s2)c1 [Example 41]", "human P2X3 receptor (Homo sapiens (Human))", 6.89],
  ["Cc1ccc([C@@H](C)NC(=O)c2cc(OC[C@H]3CCOC3)cc(-c3ncc(C4CCC4)s3)c2)nn1 [Example 135]", "human P2X3 receptor (Homo sapiens (Human))", 7.46],
  ["Cc1ncc([C@@H](C)NC(=O)c2cc(OCC3CCOCC3)cc(-c3ncc(C(C)C)s3)c2)cn1 [Example 126]", "human P2X3 receptor (Homo sapiens (Human))", 7.47],
  ["Cc1cnc(-c2cc(OC[C@H]3CNCCO3)cc(C(=O)N[C@@H](C)c3cnc(C(F)(F)F)nc3)c2)s1 [Example 413]", "human P2X3 receptor (Homo sapiens (Human))", 6.22],
  ["Cc1cnc(-c2cc(OC3CC4(C3)CN(C)C4)cc(C(=O)N[C@H](C)c3cnc(C(F)(F)F)nc3)c2)s1 [Example 214]", "human P2X3 receptor (Homo sapiens (Human))", 7.33],
  ["Cc1cnc(-c2cc(OC[C@H]3CCOC3)cc(C(=O)N[C@H](C)c3ccc(C(F)(F)F)nn3)c2)s1 [Example 72]", "human P2X3 receptor (Homo sapiens (Human))", 7.96],
  ["Cc1cnc(-c2cc(OCC3CC3)cc(C(=O)N[C@H](C)c3ccc(C(F)(F)F)nn3)c2)s1 [Example 9]", "human P2X3 receptor (Homo sapiens (Human))", 8.15],
  ["Cc1cnc(-c2cc(OCC3CC(F)CN3C)cc(C(=O)N[C@H](C)c3ccc(C(F)(F)F)nc3)c2)s1 (some centres unmarked) [Example 365]", "human P2X3 receptor (Homo sapiens (Human))", 7.68],
  ["Cc1cnc(-c2cc(OCC34CNC(CO3)C4)cc(C(=O)N[C@H](C)c3cnc(C(F)(F)F)nc3)c2)s1 (some centres unmarked) [Example 407]", "human P2X3 receptor (Homo sapiens (Human))", 7.82],
  ["CC(C)c1cnc(-c2cc(O[C@H]3CCOC3)cc(C(=O)N[C@H](C)c3cnc(C(F)(F)F)nc3)c2)s1 [Example 257]", "human P2X3 receptor (Homo sapiens (Human))", 7.33],
  ["CCc1cnc(-c2cc(OC[C@@H]3CN(C)CCO3)cc(C(=O)N[C@H](C)c3ccc(C(F)(F)F)nn3)c2)s1 [Example 418]", "human P2X3 receptor (Homo sapiens (Human))", 7.64],
  ["Cc1cnc(CNC(=O)c2cc(Oc3ccnc(C)c3)cc(-c3ncc(C)s3)c2)cn1 [Example 104]", "human P2X3 receptor (Homo sapiens (Human))", 7.29],
  ["Cc1cnc(-c2cc(O[C@H]3CCOC3)cc(C(=O)NC(C)c3ncc(Cl)cc3F)c2)s1 (some centres unmarked) [Example 134]", "human P2X3 receptor (Homo sapiens (Human))", 7.82],
  ["CCc1cnc(-c2cc(O[C@H]3CCOC3)cc(C(=O)N[C@H](C)c3ccc(C)nn3)c2)s1 [Example 249]", "human P2X3 receptor (Homo sapiens (Human))", 7.96],
  ["Cc1ccc([C@@H](C)NC(=O)c2cc(OC3CCOCC3)cc(-c3ncc(Cl)s3)c2)nn1 [Example 325]", "human P2X3 receptor (Homo sapiens (Human))", 7.59],
  ["Cc1cnc(-c2cc(O[C@@H]3CCOC3)cc(C(=O)NC(C)c3ncc(F)cc3Cl)c2)s1 (some centres unmarked) [Example 13]", "human P2X3 receptor (Homo sapiens (Human))", 7.68],
  ["Cc1ccc([C@@H](C)NC(=O)c2cc(OC3CCOCC3)cc(-c3ncc(C)s3)c2)nn1 [Example 87]", "human P2X3 receptor (Homo sapiens (Human))", 7.82],
  ["Cc1cnc(-c2cc(OC[C@H]3CN(C)CCO3)cc(C(=O)N[C@H](C)c3ccc(C(F)(F)F)nn3)c2)s1 [Example 373]", "human P2X3 receptor (Homo sapiens (Human))", 7.68]
]}
